target: UniProt:P23975; assay: Inhibitory activity against human adrenergic norepinephrine transporter at 10 uM
Sequence (P23975 whole entry): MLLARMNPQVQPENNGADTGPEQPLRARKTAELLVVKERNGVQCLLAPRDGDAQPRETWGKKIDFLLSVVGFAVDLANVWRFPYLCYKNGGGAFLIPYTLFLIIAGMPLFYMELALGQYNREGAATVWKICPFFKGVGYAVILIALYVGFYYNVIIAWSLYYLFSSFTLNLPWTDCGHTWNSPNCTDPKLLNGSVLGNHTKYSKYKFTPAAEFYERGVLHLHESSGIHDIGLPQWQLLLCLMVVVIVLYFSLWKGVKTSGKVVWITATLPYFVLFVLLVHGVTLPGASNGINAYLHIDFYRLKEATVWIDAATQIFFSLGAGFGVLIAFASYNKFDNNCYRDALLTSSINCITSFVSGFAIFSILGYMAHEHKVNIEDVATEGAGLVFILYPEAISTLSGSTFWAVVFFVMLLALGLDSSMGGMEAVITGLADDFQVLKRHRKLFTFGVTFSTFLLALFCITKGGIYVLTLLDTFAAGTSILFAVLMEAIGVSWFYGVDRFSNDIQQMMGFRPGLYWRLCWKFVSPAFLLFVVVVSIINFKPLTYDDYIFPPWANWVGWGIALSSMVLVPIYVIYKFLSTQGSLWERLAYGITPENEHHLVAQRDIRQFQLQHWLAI
readout type: inhibition (%)

smiles notation: CCn1nc(Cc2ccccc2)cc1C1CCN(C[C@H]2CN([C@@H](C(=O)O)C(C)C)C[C@@H]2c2cccc(F)c2)CC1
assay system: UniProt:P23975
unit symbol: %
inhibition: 21

I = CCn1nc(Cc2ccc(OC)c(OC)c2)cc1C1CCN(C[C@H]2CN([C@@H](C(=O)O)C(C)(C)C)C[C@@H]2c2cccc(F)c2)CC1
II = CCn1nc(Cc2ccc(C#N)cc2)cc1C1CCN(C[C@H]2CN([C@@H](C(=O)O)C(C)(C)C)C[C@@H]2c2cccc(F)c2)CC1
stdin: Dear colleague, could you let me know whether I or II has the lower recorded inhibition? Thanks. Label of pick, please.
stdout: I
(I: 3%, II: 23%)

* * *

test system: Canis familiaris; experiment: […] AUCN in dog ( (dosed as a mixture of five compounds at 0.5 mpk each via iv only); type: ADME, organism-based, Canis lupus familiaris; conditions: in vivo
readout type: AUC N (uM hr dose-1)

smiles notation: CCn1nc(Cc2ccc(OC)c(OC)c2)cc1C1CCN(C[C@H]2CN([C@@H](C(=O)O)C(C)(C)C)C[C@@H]2c2cccc(F)c2)CC1
data value: 1.9

A = CCn1nc(Cc2ccc(S(C)(=O)=O)cc2)cc1C1CCN(C[C@H]2CN([C@@H](C(=O)O)C(C)(C)C)C[C@@H]2c2cccc(F)c2)CC1
B = CCOc1ccc(Cc2cc(C3CCN(C[C@H]4CN([C@@H](C(=O)O)C(C)(C)C)C[C@@H]4c4cccc(F)c4)CC3)n(CC)n2)cc1
C = CC[C@H](C)[C@H](C(=O)O)N1C[C@H](CN2CCC(c3cc(Cc4ccc(OC(F)(F)F)cc4)nn3CC)CC2)[C@@H](c2cccc(F)c2)C1
stdin: Arrange the 3 entries by AUC N so the values rise. API: response body holds the labels in the requested order.
stdout: A, B, C

* * *

test system: HeLa; test: Antiviral activities in a cell culture HIV-1 infectivity inhibition assay using HeLa cells plus 50% normal human serum; type: functional
readout type: IC90 (nM)
Write the value in nM as a bare number.

Please review the entries below; each comes with its answer.
smiles notation: CC[C@@H](C)[C@H](C(=O)O)N1C[C@H](CN2CCC(c3cc(Cc4ccc(C(F)(F)F)cc4)nn3CC)CC2)[C@@H](c2cccc(F)c2)C1
assay system: HeLa
unit symbol: nM
IC90: 100

smiles notation: CC[C@H](C)[C@H](C(=O)O)N1C[C@H](CN2CCC(c3cc(Cc4ccc(OC)c(C#N)c4)nn3CC)CC2)[C@@H](c2cccc(F)c2)C1
assay system: HeLa
unit symbol: nM
IC90: 33

smiles notation: CC[C@H](C)[C@H](C(=O)O)N1C[C@H](CN2CCC(c3cc(Cc4ccc(OC(C)C)cc4)nn3CC)CC2)[C@@H](c2cccc(F)c2)C1
assay system: HeLa
unit symbol: nM
IC90: 33

smiles notation: CCn1nc(Cc2ccc(OC3CC3)cc2)cc1C1CCN(C[C@H]2CN([C@@H](C(=O)O)C(C)C)C[C@@H]2c2cccc(F)c2)CC1
assay system: HeLa
unit symbol: nM
IC90: 300

smiles notation: CCn1nc(Cc2ccc(Cl)cc2)cc1C1CCN(C[C@H]2CN([C@@H](C(=O)O)C3CCCCC3)C[C@@H]2c2cccc(F)c2)CC1
assay system: HeLa
unit symbol: nM
IC90: 100

smiles notation: CCn1nc(Cc2cccc(F)c2)cc1C1CCN(C[C@H]2CN([C@@H](C(=O)O)C3CCCCC3)C[C@@H]2c2cccc(F)c2)CC1
assay system: HeLa
unit symbol: nM
IC90: 33

smiles notation: CC[C@H](C)[C@H](C(=O)O)N1C[C@H](CN2CCC(c3cc(Cc4ccc(OC5CC5)cc4)nn3CC)CC2)[C@@H](c2cccc(F)c2)C1
assay system: HeLa
unit symbol: nM
IC90: 11

smiles notation: CCn1nc(Cc2ccc(C#N)cc2)cc1C1CCN(C[C@H]2CN([C@@H](C(=O)O)C(C)(C)C)C[C@@H]2c2cccc(F)c2)CC1
assay system: HeLa
unit symbol: nM
IC90: 3.7

smiles notation: CCn1nc(Cc2ccc(OC)cc2)cc1C1CCN(C[C@H]2CN([C@@H](C(=O)O)C(C)C)C[C@@H]2c2cccc(F)c2)CC1
assay system: HeLa
unit symbol: nM
IC90: 100

smiles notation: CC[C@H](C)[C@H](C(=O)O)N1C[C@H](CN2CCC(c3cc(Cc4ccc(O)cc4)nn3CC)CC2)[C@@H](c2cccc(F)c2)C1
assay system: HeLa
unit symbol: nM
IC90: 11

stdin: Entry `CCn1nc(Cc2ccc(OCC(F)(F)F)cc2)cc1C1CCN(C[C@H]2CN([C@@H](C(=O)O)C(C)(C)C)C[C@@H]2c2cccc(F)c2)CC1` has what IC90?
stdout: 100

stdin: Try `CCOc1cccc(Cc2cc(C3CCN(C[C@H]4CN([C@@H](C(=O)O)[C@@H](C)CC)C[C@@H]4c4cccc(F)c4)CC3)n(CC)n2)c1` next.
stdout: 100

stdin: Try `CC[C@H](C)[C@H](C(=O)O)N1C[C@H](CN2CCC(c3cc(Cc4ccc(OC)c(OC)c4)nn3CC)CC2)[C@@H](c2cccc(F)c2)C1` next.
stdout: 33

* * *

biological target: C-C chemokine receptor type 5 (Homo sapiens); experiment: Inhibitory concentration for displacement of [125I]-MIP-1 alpha from recombinant human CC chemokine receptor 5 (CCR5) expressed in CHO cell
Sequence (P51681 whole entry): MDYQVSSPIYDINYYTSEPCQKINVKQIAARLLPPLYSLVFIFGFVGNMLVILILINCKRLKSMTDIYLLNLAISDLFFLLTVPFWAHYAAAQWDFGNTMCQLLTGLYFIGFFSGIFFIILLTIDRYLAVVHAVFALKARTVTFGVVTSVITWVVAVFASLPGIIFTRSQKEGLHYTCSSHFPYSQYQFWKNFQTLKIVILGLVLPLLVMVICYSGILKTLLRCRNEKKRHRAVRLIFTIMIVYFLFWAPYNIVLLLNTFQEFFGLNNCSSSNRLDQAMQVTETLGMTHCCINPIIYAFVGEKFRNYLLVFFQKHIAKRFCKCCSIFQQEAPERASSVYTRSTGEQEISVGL
readout type: IC50 (nM)

Please review the entries below; each comes with its answer.
smiles notation: CC[C@H](C)[C@H](C(=O)O)N1C[C@H](CN2CCC(c3cc(Cc4ccc(-c5ccccc5)cc4)nn3CC)CC2)[C@@H](c2cccc(F)c2)C1
IC50 / nM: 0.3
--
smiles notation: CCOc1ccc(Cc2cc(C3CCN(C[C@H]4CN([C@@H](C(=O)O)[C@@H](C)CC)C[C@@H]4c4cccc(F)c4)CC3)n(CC)n2)cc1
IC50 / nM: 0.6
--
smiles notation: CCOc1ccc(Cc2cc(C3CCN(C[C@H]4CN([C@@H](C(=O)O)C(C)C)C[C@@H]4c4cccc(F)c4)CC3)n(CC)n2)cc1
IC50 / nM: 1
--
smiles notation: CCn1nc(Cc2cccc3ccccc23)cc1C1CCN(C[C@H]2CN([C@@H](C(=O)O)C(C)(C)C)C[C@@H]2c2cccc(F)c2)CC1
IC50 / nM: 0.2
--
smiles notation: CCn1nc(Cc2ccc(F)cc2F)cc1C1CCN(C[C@H]2CN([C@@H](C(=O)O)C3CCCCC3)C[C@@H]2c2cccc(F)c2)CC1
IC50 / nM: 1.5

I = CCCCOc1ccc(Cc2cc(C3CCN(C[C@H]4CN([C@@H](C(=O)O)C5CCCCC5)C[C@@H]4c4cccc(F)c4)CC3)n(CC)n2)cc1
II = CCn1nc(Cc2ccc(S(C)(=O)=O)cc2)cc1C1CCN(C[C@H]2CN([C@@H](C(=O)O)C(C)(C)C)C[C@@H]2c2cccc(F)c2)CC1
stdin: Dear colleague, could you let me know whether I or II has the lower recorded IC50? Thanks. Label of pick, please.
stdout: I
(I: 0.8 nM, II: 1.6 nM)

* * *

This listing pairs compounds with measured IC90.
test system: HeLa; assay: Antiviral activities in a cell culture HIV-1 infectivity inhibition assay using HeLa cells plus 50% normal human serum; assay type: functional
Write the value in nM as a bare number.

Please review the entries below; each comes with its answer.
smiles notation: CCn1nc(Cc2ccc(OC(F)(F)F)cc2)cc1C1CCN(C[C@H]2CN([C@@H](C(=O)O)C(C)C)C[C@@H]2c2cccc(F)c2)CC1
IC90, nM: 300
--
smiles notation: CCn1nc(CC2CCCCC2)cc1C1CCN(C[C@H]2CN([C@@H](C(=O)O)C(C)(C)C)C[C@@H]2c2cccc(F)c2)CC1
IC90, nM: 300
--
smiles notation: CCOc1ccc(Cc2cc(C3CCN(C[C@H]4CN([C@@H](C(=O)O)[C@@H](C)CC)C[C@@H]4c4cccc(F)c4)CC3)n(CC)n2)cc1F
IC90, nM: 11
--
smiles notation: CCn1nc(Cc2cc(F)cc(F)c2)cc1C1CCN(C[C@H]2CN([C@@H](C(=O)O)C(C)C)C[C@@H]2c2cccc(F)c2)CC1
IC90, nM: 300
--
smiles notation: CCCCOc1ccc(Cc2cc(C3CCN(C[C@H]4CN([C@@H](C(=O)O)C(C)C)C[C@@H]4c4cccc(F)c4)CC3)n(CC)n2)cc1
IC90, nM: 300
--
smiles notation: CCn1nc(Cc2ccc(OC3CC3)cc2)cc1C1CCN(C[C@H]2CN([C@@H](C(=O)O)C3CCCCC3)C[C@@H]2c2cccc(F)c2)CC1
IC90, nM: 33

From here, focus on the item given below.
stdin: Entry `CC[C@H](C)[C@H](C(=O)O)N1C[C@H](CN2CCC(c3cc(Cc4ccc(S(=O)(=O)c5ccccc5)cc4)nn3CC)CC2)[C@@H](c2cccc(F)c2)C1` has what IC90?
stdout: 11
